Target: T1, ActRIIB-Fc (extracellular domain of human ActRIIB, activin receptor type-2B, fused to human IgG-Fc) (human, UniProt Q13705 19-135)
T1 sequence: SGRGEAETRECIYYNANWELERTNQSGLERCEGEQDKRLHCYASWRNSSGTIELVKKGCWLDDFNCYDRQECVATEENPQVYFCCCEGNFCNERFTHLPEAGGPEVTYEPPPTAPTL
Experiment: SPR
Bridge positions count the residues as written; N and C are the ends. Ends that are not written are not given here.
measured.quantity: Kd (µM)
Report the figure in µM without appending any unit label.

Query: // lookup Kd for PFQCTRARDGWYYCTKS-OH (disulfide 4-14 (inferred)) [AR8]
Reply: 3.6
